experiment-notes: Stability in liver microsomes, rat
Assay type: in vitro ADME
condition: 60 minutes, read-out: In vitro Clint
Overview of recorded microsomal CLint at 1 μM for various molecules
The answer is to be given in µL/min/mg; state only the numeric part.

// solved cases for microsomal CLint at 1 μM follow
| molecule | outcome-measure | test-result |
| --- | --- | --- |
| CC(=O)N[C@@H](Cc1c[nH]c2ccccc12)C(=O)N[C@@H](CCC(=O)C=[N+]=[N-])C(=O)OC(C)C [Reference compound A, reference compound] | microsomal CLint at 1 μM | 95.2 |
| CO[C@@H](CCSC)C(=O)N[C@@H](CCC(=O)C=[N+]=[N-])C(=O)OC(C)C | microsomal CLint at 1 μM | 239 |
| CO[C@@H](C)C(=O)N[C@@H](CCC(=O)C=[N+]=[N-])C(=O)OC(C)C | microsomal CLint at 1 μM | 62.4 |

Challenge: Report microsomal CLint at 1 μM, nothing else, for this molecule: CO[C@@H](C)C(=O)N[C@@H](CCC(=O)C=[N+]=[N-])C(=O)SC(C)C
Response given: 115
